# procedure-text: Mouse PK (AUC)
# Type: in vivo
# assay-context: in vivo, oral, 0.07 mg/kg; mouse, 0.07 mpk
value-kind: AUC (ng·h/mL)
Give the value, in units of ng·h/mL, as a plain number.

[Q] For Nc1ncn(C2CC(O)C(CO)S2)c(=O)n1 (stereo not shown) [Aza-T-dCyd, 4′-Thio-5-aza-2′-deoxycytidine] , what is its reported AUC?
[A] 11.3

* * *

# procedure-text: in vivo
# assay-context: dog, iv, 0.33 mg/kg
value-kind: half-life (h)
Note: unit h is implicit; provide only the numeric part.

[Q] For the compound shown here, Nc1ncn([C@H]2C[C@H](O)[C@@H](CO)O2)c(=O)n1 [decitabine, reference compound] , give the reported half-life.
[A] 1.19

* * *

# procedure-text: Animal PK, NCA parameters, mouse
# assay-context: in vivo, iv, 1 mg/kg
value-kind: clearance
Give your result as the value with the unit written after it.

compound	clearance
Nc1ncn(C2CC(O)C(CO)S2)c(=O)n1 (centres unmarked)	42.3 mL/min/kg

Shift focus to the following entry.
[Q] Requested read-out: clearance. Entry: Nc1ncn([C@H]2C[C@H](O)[C@@H](CO)O2)c(=O)n1 [decitabine, reference compound]
[A] 62.5 mL/min/kg

* * *

# procedure-text: Animal PK, NCA parameters, dog
# assay-context: in vivo, iv, 0.33 mg/kg
value-kind: C0 (ng/mL)
# number only, unit ng/mL dropped from output

compound	C0, ng/mL
Nc1ncn(C2CC(O)C(CO)S2)c(=O)n1 (centres unmarked) [Aza-T-dCyd, 4′-Thio-5-aza-2′-deoxycytidine]	586

[Q] // lookup C0 for Nc1ncn([C@H]2C[C@H](O)[C@@H](CO)O2)c(=O)n1 [decitabine, reference compound]
[A] 746

* * *

# procedure-text: Animal PK, NCA parameters, mouse
# assay-context: in vivo
value-kind: bioavailability (%)
Your answer is read as %, so omit the unit and give the number.

[Q] If you can, please state the reported bioavailability value of Nc1ncn(C2CC(O)C(CO)S2)c(=O)n1 (stereo not shown) .
[A] 50.6

* * *

# procedure-text: Mouse PK (AUC)
# Assay type: in vivo
# assay-context: in vivo, oral, 2.6 mg/kg; mouse, 2.6 mpk
value-kind: AUC (ng·h/mL)
Reply with just the number (in ng·h/mL).

[Q] Recorded AUC of Nc1ncn(C2CC(O)C(CO)S2)c(=O)n1 (stereo not shown) , please.
[A] 355

* * *

# procedure-text: Animal PK, NCA parameters, dog
# assay-context: in vivo, iv, 0.33 mg/kg
value-kind: half-life (h)
Please give a number only; it is taken to be in h.

[Q] Fill in the blank: the reported half-life of Nc1ncn(C2CC(O)C(CO)S2)c(=O)n1 (stereo not shown) is ____.
[A] 2.25

* * *

Form field: AUC(0-inf) (one value per entry).
# procedure-text: Animal PK, NCA parameters, rat
# assay-context: in vivo, iv, 1 mg/kg
// units = ng·h/mL; emit number, no label

molecule	value-kind	unit-abbreviation	measured-value
Nc1ncn(C2CC(O)C(CO)S2)c(=O)n1 (centres unmarked)	AUC(0-inf)	ng·h/mL	1900

With those in mind, consider the next molecule.
[Q] Fill in the blank: the reported AUC(0-inf) of Nc1ncn([C@H]2C[C@H](O)[C@@H](CO)O2)c(=O)n1 [decitabine, reference compound] is ____.
[A] 2370
